Where do the numbers come from? From ChEMBL document CHEMBL1201862.

# tgt: Caspase-3 (Homo sapiens)
# procedure_text: SAR Analysis of small molecule inhibitors of Sentrin-specific proteases (SENPs) using a Caspase-3 Selectivity assay. [Related pubchem assays (depositor defined):AID2540, AID2599, AID434973, AID489001]
# Format: functional
Calls of active or inactive are those of the source.
The reply should name one outcome from TRUE for active, FALSE for inactive

Reference set (3 entries):
COc1ccc(/C=N/Nc2nc(NCc3ccccc3)nc(N(C)C)n2)cc1Br: FALSE
COc1cc(Br)c(C(=O)c2nccc3cc(OC)c(OC)cc23)cc1OC: TRUE
C(/C=C/c1ccccc1)=N/Nc1cc(N2CCCC2)nc(N2CCCC2)n1: FALSE

Field: next compound
-- ask Status in this test for `CCOc1ccc(C(=O)Nc2ccc3ccccc3c2)cc1Br` ?
-- reply FALSE

====

IC50, Glyceraldehyde-3-phosphate dehydrogenase (Homo sapiens): measured values

Known IC50 results, listed for orientation:
c1cncc(Cn2ccnc2)c1: > 100 µM (not active)
CCCSc1nnc(NC(C)=O)[nH]1: > 10 µM (inconclusive)
O=C(c1[nH]nc2c1COc1ccccc1-2)N1CCCC1: > 100 µM (not active)
CC(=O)Nc1nnc(SCCc2ccccc2)[nH]1: > 100 µM (not active)
O=C1C(Cl)=C(N2CCN(c3ncccn3)CC2)C(=O)N1c1cccc(C(F)(F)F)c1: > 50 µM (inconclusive)
COc1ccc(OC)c(S(=O)(=O)Nc2ccc[nH]c2=O)c1: > 100 µM (not active)
CC1(C)CC(=O)c2c(/C=C/c3ccccc3)n[nH]c2C1: > 100 µM (not active)

With those in mind, consider the next compound.
-- ask Endpoint output: IC50 of `c1cncc(-c2nccs2)c1` . Value?
-- reply > 100 µM (not active)

====

# tgt: Streptokinase A (Streptococcus pyogenes serotype M1, UniProt P10520)
# Sequence (P10520 whole entry): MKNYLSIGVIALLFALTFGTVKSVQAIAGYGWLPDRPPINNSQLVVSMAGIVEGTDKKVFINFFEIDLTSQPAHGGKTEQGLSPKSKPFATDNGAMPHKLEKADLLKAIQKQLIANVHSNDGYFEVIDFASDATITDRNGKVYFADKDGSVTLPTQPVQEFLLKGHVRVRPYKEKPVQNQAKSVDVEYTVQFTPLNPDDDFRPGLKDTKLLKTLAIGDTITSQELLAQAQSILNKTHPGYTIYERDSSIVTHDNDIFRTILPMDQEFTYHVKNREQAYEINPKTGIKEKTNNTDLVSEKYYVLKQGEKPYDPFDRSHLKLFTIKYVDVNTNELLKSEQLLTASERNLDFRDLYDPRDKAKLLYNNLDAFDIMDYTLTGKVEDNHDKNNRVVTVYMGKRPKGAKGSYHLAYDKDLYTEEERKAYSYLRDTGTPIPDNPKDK
# procedure_text: S. pyogenes streptokinase expression inhibitors, potency, dose response, plasminogen activation absorbance, OD405 (AID 1914);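 further: secreted streptokinase activity via plasminogen activation per viability signal from cell pellet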
# Assay type: functional, Streptococcus pyogenes M1 GAS
Activity calls are given as the source filed them.
Each entry below lists one item and its recorded EC50 value.

Known EC50 results, listed for orientation:
COc1ccc(S(=O)(=O)N2CCN=C2SCc2cccc(C)c2)cc1: 46.6 µM (inconclusive)
C/C(CC(=O)Nc1ccc(Cl)c(C(F)(F)F)c1)=N\NC(=O)c1cc2ccccc2cc1O: > 150 µM (not active)
Clc1ccc2nc(-c3ccccn3)c(Nc3ccc4c(c3)OCO4)n2c1: > 150 µM (not active)

-- ask Endpoint output: EC50 of Cc1ccc(CN=C(S)NC2CCC(C(C)(C)C)CC2)cc1 (centres undefined) . Value?
-- reply 13.1 µM (active)

-- ask Repeat with `COc1ccc(NC(S)=NNc2ccc([N+](=O)[O-])cc2S(=O)(=O)Nc2ccc(C)cc2C)cc1`
-- reply > 150 µM (not active)

-- ask Repeat with `COc1cc(/C=C/C(=O)c2ccc([N+](=O)[O-])o2)ccc1O`
-- reply 12.8 µM (active)

-- ask Repeat with `Cc1ccc(NC(=S)N=Nc2c(O)[nH]c3ccccc23)cc1`
-- reply > 150 µM (not active)

-- ask Repeat with CC(C)C1Cc2c(sc3[nH]c(=S)n(Cc4ccccc4)c(=O)c23)CO1 (centres undefined)
-- reply > 150 µM (not active)

-- ask Repeat with `Cc1ccc(C(=O)CC(=O)c2ccccc2C)c(O)c1`
-- reply > 150 µM (not active)

-- ask Repeat with `COc1ccc(Oc2nc(-c3ccccn3)ncc2OC)cc1`
-- reply > 150 µM (not active)

-- ask Repeat with `Cc1ccc(/C=C/C2=NN(Cc3ccc(Cl)c(Cl)c3)C(=O)CC2)cc1`
-- reply 24.3 µM (active)

-- ask Repeat with `Cc1nc(N/N=C\c2ccc3c(c2)OCO3)sc1C`
-- reply > 150 µM (not active)

====

# tgt: Caspase-3 (Homo sapiens, UniProt P42574)
# Sequence (P42574 whole entry): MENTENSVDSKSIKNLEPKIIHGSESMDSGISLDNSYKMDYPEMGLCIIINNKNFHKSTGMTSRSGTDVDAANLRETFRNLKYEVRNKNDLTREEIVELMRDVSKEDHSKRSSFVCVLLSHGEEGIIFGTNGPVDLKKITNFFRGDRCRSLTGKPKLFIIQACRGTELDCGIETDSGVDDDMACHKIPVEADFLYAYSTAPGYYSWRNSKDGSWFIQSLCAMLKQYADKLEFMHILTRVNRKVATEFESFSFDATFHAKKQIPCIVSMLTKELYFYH
# Assay type: functional
Activity calls are given as the source filed them.
property_name: IC50

Known IC50 results, listed for orientation:
COc1ccc2oc3ccc(OC)cc3c(=O)c2c1: 11 µM (active)
COc1ccc(O)c(-c2cc(-c3cccc(Br)c3)[nH]n2)c1: 97.7 µM (active)
Cc1c(NC(=O)C(C)OC(=O)c2ccc([N+](=O)[O-])s2)c(=O)n(-c2ccccc2)n1C (stereo not given): 13.6 µM (active)
OC(c1ccc(OCc2ccccc2)cc1)c1nnc(-c2ccccc2)o1 (stereo not given): 69.2 µM (active)

With those in mind, consider the next compound.
-- ask Lab note: need IC50 with Caspase-3 (Homo sapiens, UniProt P42574) for entry `Cc1nc(N/N=C\c2ccc3c(c2)OCO3)sc1C` , please look it up.
-- reply 33.2 µM (active)

====

# tgt: 26S proteasome non-ATPase regulatory subunit 14 (Homo sapiens)
# Sequence (O00487 whole entry): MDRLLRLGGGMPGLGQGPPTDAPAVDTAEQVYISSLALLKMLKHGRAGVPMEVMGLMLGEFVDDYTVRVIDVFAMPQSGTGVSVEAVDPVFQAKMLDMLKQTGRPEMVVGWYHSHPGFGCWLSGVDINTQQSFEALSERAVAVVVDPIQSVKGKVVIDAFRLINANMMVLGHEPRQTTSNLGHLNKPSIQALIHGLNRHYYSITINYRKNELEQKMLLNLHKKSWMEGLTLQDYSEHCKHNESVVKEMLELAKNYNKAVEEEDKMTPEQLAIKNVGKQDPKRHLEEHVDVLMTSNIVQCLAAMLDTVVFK
# procedure_text: inhibition of proteasome subunit RPN11 – biochemical, fluorescence polarization, uHTS hits, confirmation (AID 602368)
# Format: functional
Activity calls are given as the source filed them.
Each entry below lists one item and its recorded IC50 value.

Known IC50 results, listed for orientation:
NC(=Nc1cccc2ccccc12)Nc1nc(O)c2c(n1)CCC2: 24.3 µM (active)
O=C(NN1C(=O)/C(=C\c2ccc(O)c([N+](=O)[O-])c2)SC1=S)c1ccccc1Cl: 26.8 µM (active)

-- ask Endpoint output: IC50 of `CCN(CC)c1ccc(/C=N/NC(=O)c2cccc(S(=O)(=O)Nc3ccccc3OC)c2)cc1` . Value?
-- reply 26.3 µM (active)

-- ask Repeat with `COc1cc(/C=C2/C(=O)NN(c3ccc(Cl)cc3)C2=O)cc(Br)c1O`
-- reply 14.5 µM (active)

-- ask Repeat with `N=C1/C(=C\c2ccc(-c3cccc(Cl)c3)o2)C(=O)N=C2SC=C(c3ccccc3)N12`
-- reply 27.8 µM (active)

====

# tgt: Type-1 angiotensin II receptor (Homo sapiens, UniProt P30556)
# Sequence (P30556 whole entry): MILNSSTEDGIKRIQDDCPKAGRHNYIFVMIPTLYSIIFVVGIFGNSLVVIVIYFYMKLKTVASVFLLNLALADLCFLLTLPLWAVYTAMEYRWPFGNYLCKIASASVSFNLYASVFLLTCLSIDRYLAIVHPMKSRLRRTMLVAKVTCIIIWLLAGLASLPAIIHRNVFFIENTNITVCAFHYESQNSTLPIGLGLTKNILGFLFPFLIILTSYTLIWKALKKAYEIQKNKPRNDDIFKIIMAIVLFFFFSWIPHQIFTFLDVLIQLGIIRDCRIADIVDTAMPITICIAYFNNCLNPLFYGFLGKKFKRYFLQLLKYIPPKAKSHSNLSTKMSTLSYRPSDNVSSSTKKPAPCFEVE
# procedure_text: AT1 receptor antagonists, dose response, selectivity assay for APJ receptor antagonist project, cell-based, uHTS hits (AID 463214);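 further: antagonist potency against angiotensin II stimulated AT1 response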
# Format: functional
property_name: IC50

Known IC50 results, listed for orientation:
CC(C)c1ccc(O)c(NC(=S)NC(=O)c2cccnc2)c1: 23.2 µM (not active)
CC(C)(C)c1cc(Cl)c(O)c(NC(=S)NC(=O)c2cccnc2)c1: 22.2 µM (not active)
COc1ccc(C(=O)NC(=S)Nc2nnn(C)n2)cc1: > 40 µM (not active)

With those in mind, consider the next compound.
-- ask Endpoint output: IC50 of `OCCN1C[C@H](O)[C@@H](O)[C@H](O)[C@H]1CO` . Value?
-- reply > 40 µM (not active)

====

# tgt: Cytochrome P450 2C9 (Homo sapiens)
# Sequence (P11712 whole entry): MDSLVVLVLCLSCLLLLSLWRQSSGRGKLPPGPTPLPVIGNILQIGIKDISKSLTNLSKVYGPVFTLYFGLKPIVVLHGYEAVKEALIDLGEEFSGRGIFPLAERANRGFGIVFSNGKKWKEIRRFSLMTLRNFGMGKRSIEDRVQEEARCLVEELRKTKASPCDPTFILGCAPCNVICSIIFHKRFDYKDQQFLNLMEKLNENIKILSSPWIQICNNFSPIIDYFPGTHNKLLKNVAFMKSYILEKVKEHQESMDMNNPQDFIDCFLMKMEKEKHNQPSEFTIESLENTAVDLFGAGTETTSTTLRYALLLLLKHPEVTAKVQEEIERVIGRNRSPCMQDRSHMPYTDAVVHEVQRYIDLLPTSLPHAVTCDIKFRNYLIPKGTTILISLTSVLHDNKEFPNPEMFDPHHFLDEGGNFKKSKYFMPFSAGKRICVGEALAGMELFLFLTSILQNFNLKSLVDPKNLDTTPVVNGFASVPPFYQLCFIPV
Each entry below lists one item and its recorded AC50 value.

Known AC50 results, listed for orientation:
CC(C)(C)Nc1nc(N2CCCC2)nc(N2CCCC2)n1: 5.01 µM (inconclusive)
CSc1ccc(CNc2ccc(C)c(C)c2)cc1: 14.1 µM (inconclusive)
COCCCN1C(=O)C(O)=C(C(=O)c2ccc(OC(C)C)c(C)c2)C1c1ccncc1 (centres undefined): 35.5 µM (inconclusive)
O=C(c1cccc(F)c1)N1CCC[C@@]2(CCN(c3cccc(-c4ccccc4)c3)C2)C1: 20 µM (inconclusive)
Nc1ccc(-c2ccc(Nc3cc(S(=O)(=O)O)c(N)c4c3C(=O)c3ccccc3C4=O)cc2)c(S(=O)(=O)O)c1: 6.31 µM (inconclusive)
CCC(C)(C(=O)NC1CCCC1)N(Cc1ccco1)C(=O)c1ccccn1 (centres undefined): 12.6 µM (inconclusive)
CC(CO)(CO)/N=C\c1cc(I)cc(I)c1O: 6.31 µM (inconclusive)
O=C(c1ccc(F)cc1)C1CCN(CCn2c(=S)[nH]c3ccccc3c2=O)CC1 [ALTANSERIN]: 25.1 µM (inconclusive)

-- ask Endpoint output: AC50 of `O=c1c(-c2cc(F)cc(F)c2)nc2cnc(N3CCNCC3)nc2n1Cc1ccc(F)cc1` . Value?
-- reply 12.6 µM (inconclusive)

-- ask Repeat with `c1cc2c(cc1C1CCCCC1)c1c3n2CCN[C@H]3CCC1`
-- reply 20 µM (inconclusive)

-- ask Repeat with `NC(=O)CSc1nc2sc(-c3ccccc3)cc2c(=O)n1N`
-- reply 3.55 µM (inconclusive)

-- ask Repeat with CC(C)C(NS(=O)(=O)c1cccc2nsnc12)C(=O)N1CCc2ccccc2C1 (centres undefined)
-- reply 3.55 µM (inconclusive)

-- ask Repeat with `O=C(c1ccc(N2CCCCC2)c([N+](=O)[O-])c1)N(Cc1ccccc1)c1ccccn1`
-- reply 7.94 µM (inconclusive)
